Assay overview: n-Octanol/PBS distribution coefficient (log D)
Assay type: physicochemical
Condition description: n-octanol/PBS; radiolabeled ligand, 50 MBq/nmol, PBS pH 7.4
Parameter: logD
Answer with a bare number; do not write a unit.

Compound | logD
Cc1ccc(CCCC(=O)NCCCCC(NC(=O)CN2CCN(CC(=O)O)CCN(CC(=O)O)CCN(CC(=O)O)CC2)C(=O)NCC2CCC(C(=O)NC(Cc3ccc4ccccc4c3)C(=O)NCCCCC(NC(=O)NC(CCC(=O)O)C(=O)O)C(=O)O)CC2)cc1 (stereo not drawn) [^64Cu-PSMA-ALB-06, metal not drawn] | -3.1
O=C(O)CC[C@H](NC(=O)N[C@@H](CCCCNC(=O)[C@H](Cc1ccc2ccccc2c1)NC(=O)[C@H]1CC[C@H](CNC(=O)CN2CCN(CC(=O)O)CCN(CC(=O)O)CCN(CC(=O)O)CC2)CC1)C(=O)O)C(=O)O [PSMA-617, reference compound] | -4.4
O=C(O)CCC(NC(=O)NC(CCCCNC(=O)C(Cc1ccc2ccccc2c1)NC(=O)C1CCC(CNC(=O)C(CCCCNC(=O)CN2CCN(CC(=O)O)CCN(CC(=O)O)CCN(CC(=O)O)CC2)NC(=O)CC(NC(=O)CC(NC(=O)CC(NC(=O)CCCc2ccc(I)cc2)C(=O)O)C(=O)O)C(=O)O)CC1)C(=O)O)C(=O)O (stereo not drawn) [PSMA-ALB-07] | -3.9
O=C(O)CC[C@H](NC(=O)N[C@@H](CCCCNC(=O)[C@H](Cc1ccc2ccccc2c1)NC(=O)[C@H]1CC[C@H](CNC(=O)[C@@H](CCCCNC(=O)CN2CCN(CC(=O)O)CCN(CC(=O)O)CCN(CC(=O)O)CC2)NC(=O)CCCc2ccc(I)cc2)CC1)C(=O)O)C(=O)O [PSMA-ALB-02] | -2.8
Cc1ccc(CCCC(=O)NCCCC[C@H](NC(=O)CCC(C(=O)O)N2CCN(CC(=O)O)CCN(CC(=O)O)CC2)C(=O)NC[C@H]2CC[C@H](C(=O)N[C@H](Cc3ccc4ccccc4c3)C(=O)NCCCC[C@@H](NC(=O)N[C@H](CCC(=O)O)C(=O)O)C(=O)O)CC2)cc1 (stereo partly drawn) [^64Cu-PSMA-ALB-89, metal not drawn] | -2.3

Now examine the next entry.
Which logD value belongs to O=C(O)CCC(NC(=O)NC(CCCCNC(=O)C(Cc1ccc2ccccc2c1)NC(=O)C1CCC(CNC(=O)C(CCCCNC(=O)CN2CCN(CC(=O)O)CCN(CC(=O)O)CCN(CC(=O)O)CC2)NC(=O)CC(NC(=O)CC(NC(=O)CCCc2ccc(I)cc2)C(=O)O)C(=O)O)CC1)C(=O)O)C(=O)O (stereo not drawn) [PSMA-ALB-05] ? -3.5

---

Test system: PC-3 PIP/flu tumor-bearing mice
Assay overview: Biodistribution studies in PC-3 PIP/flu tumor-bearing mice
Condition description: 192 h p.i.
Parameter: Spleen (% IA/g)
Give the quantity in % IA/g, number only.

Example compounds with recorded Spleen:
Compound | Study system | Spleen (% IA/g)
O=C(O)CCC(NC(=O)NC(CCCCNC(=O)C(Cc1ccc2ccccc2c1)NC(=O)C1CCC(CNC(=O)C(CCCCNC(=O)CCCc2ccc(I)cc2)NC(=O)CN2CCN(CC(=O)O)CCN(CC(=O)O)CCN(CC(=O)O)CC2)CC1)C(=O)O)C(=O)O (stereo not shown) [^177Lu-PSMA-ALB-03, metal not drawn] | PC-3 PIP/flu tumor-bearing mice | 3.13
O=C(O)CCC(NC(=O)NC(CCCCNC(=O)C(Cc1ccc2ccccc2c1)NC(=O)C1CCC(CNC(=O)C(CCCCNC(=O)CN2CCN(CC(=O)O)CCN(CC(=O)O)CCN(CC(=O)O)CC2)NC(=O)CC(NC(=O)CC(NC(=O)CCCc2ccc(I)cc2)C(=O)O)C(=O)O)CC1)C(=O)O)C(=O)O (stereo not shown) [^177Lu-PSMA-ALB-05, metal not drawn] | PC-3 PIP/flu tumor-bearing mice | 0.55
O=C(O)CCC(NC(=O)NC(CCCCNC(=O)C(Cc1ccc2ccccc2c1)NC(=O)C1CCC(n2cc(CC(NC(=O)CN3CCN(CC(=O)O)CCN(CC(=O)O)CCN(CC(=O)O)CC3)C(=O)NC(CCCCNC(=O)CCCc3ccc(I)cc3)C(=O)O)nn2)CC1)C(=O)O)C(=O)O (stereo not shown) [^177Lu-PSMA-ALB-01, metal not drawn] | PC-3 PIP/flu tumor-bearing mice | 4.09

Test system PC-3 PIP/flu tumor-bearing mice; read-out Spleen; what value for O=C(O)CCC(NC(=O)NC(CCCCNC(=O)C(Cc1ccc2ccccc2c1)NC(=O)C1CCC(CNC(=O)C(CCCCNC(=O)CN2CCN(CC(=O)O)CCN(CC(=O)O)CCN(CC(=O)O)CC2)NC(=O)CCCCCCC(=O)NC(CCCCNC(=O)CCCc2ccc(I)cc2)C(=O)O)CC1)C(=O)O)C(=O)O (stereo not shown) [^177Lu-PSMA-ALB-04, metal not drawn] ? 5.22

---

System: PC-3 PIP/flu tumor-bearing mice
Assay overview: Biodistribution studies in PC-3 PIP/flu tumor-bearing mice
Condition description: 24 h p.i.
Consider the following compounds and their measured Muscle readings.
Give the quantity in % IA/g, number only.

Test system PC-3 PIP/flu tumor-bearing mice; read-out Muscle; what value for O=C(O)CCC(NC(=O)NC(CCCCNC(=O)C(Cc1ccc2ccccc2c1)NC(=O)C1CCC(CNC(=O)C(CCCCNC(=O)CN2CCN(CC(=O)O)CCN(CC(=O)O)CCN(CC(=O)O)CC2)NC(=O)CC(NC(=O)CC(NC(=O)CC(NC(=O)CCCc2ccc(I)cc2)C(=O)O)C(=O)O)C(=O)O)CC1)C(=O)O)C(=O)O (centres unmarked) [^177Lu-PSMA-ALB-07, metal not drawn] ? 0.13

Test system PC-3 PIP/flu tumor-bearing mice; read-out Muscle; what value for O=C(O)CCC(NC(=O)NC(CCCCNC(=O)C(Cc1ccc2ccccc2c1)NC(=O)C1CCC(CNC(=O)C(CCCCNC(=O)CCCc2ccc(I)cc2)NC(=O)CN2CCN(CC(=O)O)CCN(CC(=O)O)CCN(CC(=O)O)CC2)CC1)C(=O)O)C(=O)O (centres unmarked) [^177Lu-PSMA-ALB-03, metal not drawn] ? 1.61

---

Tested on: PC-3 PIP/flu tumor-bearing mice
Assay overview: Biodistribution studies in PC-3 PIP/flu tumor-bearing mice
Condition description: 192 h p.i.; PC-3 PIP tumor
Parameter: Tumor-to-blood
Answer with a bare number; do not write a unit.

Compound | Study system | Tumor-to-blood
O=C(O)CCC(NC(=O)NC(CCCCNC(=O)C(Cc1ccc2ccccc2c1)NC(=O)C1CCC(CNC(=O)C(CCCCNC(=O)CN2CCN(CC(=O)O)CCN(CC(=O)O)CCN(CC(=O)O)CC2)NC(=O)CCCCCCC(=O)NC(CCCCNC(=O)CCCc2ccc(I)cc2)C(=O)O)CC1)C(=O)O)C(=O)O (stereo not shown) [^177Lu-PSMA-ALB-04, metal not drawn] | PC-3 PIP/flu tumor-bearing mice | 15.8
O=C(O)CCC(NC(=O)NC(CCCCNC(=O)C(Cc1ccc2ccccc2c1)NC(=O)C1CCC(n2cc(CC(NC(=O)CN3CCN(CC(=O)O)CCN(CC(=O)O)CCN(CC(=O)O)CC3)C(=O)NC(CCCCNC(=O)CCCc3ccc(I)cc3)C(=O)O)nn2)CC1)C(=O)O)C(=O)O (stereo not shown) [^177Lu-PSMA-ALB-01, metal not drawn] | PC-3 PIP/flu tumor-bearing mice | 14.5
O=C(O)CCC(NC(=O)NC(CCCCNC(=O)C(Cc1ccc2ccccc2c1)NC(=O)C1CCC(CNC(=O)C(CCCCNC(=O)CCCc2ccc(I)cc2)NC(=O)CN2CCN(CC(=O)O)CCN(CC(=O)O)CCN(CC(=O)O)CC2)CC1)C(=O)O)C(=O)O (stereo not shown) [^177Lu-PSMA-ALB-03, metal not drawn] | PC-3 PIP/flu tumor-bearing mice | 11.1

Which Tumor-to-blood value belongs to O=C(O)CCC(NC(=O)NC(CCCCNC(=O)C(Cc1ccc2ccccc2c1)NC(=O)C1CCC(CNC(=O)C(CCCCNC(=O)CN2CCN(CC(=O)O)CCN(CC(=O)O)CCN(CC(=O)O)CC2)NC(=O)CC(NC(=O)CC(NC(=O)CCCc2ccc(I)cc2)C(=O)O)C(=O)O)CC1)C(=O)O)C(=O)O (stereo not shown) [^177Lu-PSMA-ALB-05, metal not drawn] ? 19.0

---

System: PC-3 PIP/flu tumor-bearing mice
Assay overview: Biodistribution studies in PC-3 PIP/flu tumor-bearing mice
Condition description: 4 h p.i.
Consider the following compounds and their measured Kidneys readings.
Give the quantity in % IA/g, number only.

Compound | Study system | Measured
O=C(O)CCC(NC(=O)NC(CCCCNC(=O)C(Cc1ccc2ccccc2c1)NC(=O)C1CCC(n2cc(CC(NC(=O)CN3CCN(CC(=O)O)CCN(CC(=O)O)CCN(CC(=O)O)CC3)C(=O)NC(CCCCNC(=O)CCCc3ccc(I)cc3)C(=O)O)nn2)CC1)C(=O)O)C(=O)O (stereo not shown) [^177Lu-PSMA-ALB-01, metal not drawn] | PC-3 PIP/flu tumor-bearing mice | 24.6

Test system PC-3 PIP/flu tumor-bearing mice; read-out Kidneys; what value for Cc1ccc(CCCC(=O)NC(CC(=O)NC(CC(=O)NC(CC(=O)NC(CCCCNC(=O)CN2CCN(CC(=O)O)CCN(CC(=O)O)CCN(CC(=O)O)CC2)C(=O)NCC2CCC(C(=O)NC(Cc3ccc4ccccc4c3)C(=O)NCCCCC(NC(=O)NC(CCC(=O)O)C(=O)O)C(=O)O)CC2)C(=O)O)C(=O)O)C(=O)O)cc1 (stereo not shown) [^177Lu-PSMA-ALB-08, metal not drawn] ? 27.2

Test system PC-3 PIP/flu tumor-bearing mice; read-out Kidneys; what value for Cc1ccc(CCCC(=O)NCCCCC(NC(=O)CN2CCN(CC(=O)O)CCN(CC(=O)O)CCN(CC(=O)O)CC2)C(=O)NCC2CCC(C(=O)NC(Cc3ccc4ccccc4c3)C(=O)NCCCCC(NC(=O)NC(CCC(=O)O)C(=O)O)C(=O)O)CC2)cc1 (stereo not shown) [44Sc-PSMA-ALB-06, metal not drawn] ? 28.8

Test system PC-3 PIP/flu tumor-bearing mice; read-out Kidneys; what value for O=C(O)CCC(NC(=O)NC(CCCCNC(=O)C(Cc1ccc2ccccc2c1)NC(=O)C1CCC(CNC(=O)C(CCCCNC(=O)CN2CCN(CC(=O)O)CCN(CC(=O)O)CCN(CC(=O)O)CC2)NC(=O)CC(NC(=O)CC(NC(=O)CCCc2ccc(I)cc2)C(=O)O)C(=O)O)CC1)C(=O)O)C(=O)O (stereo not shown) [^177Lu-PSMA-ALB-05, metal not drawn] ? 52.8
